Provenance of the data: patent US3946000A

assay: Solubility in 0.1 M pH 7.0 phosphate buffer (bioassay and UV-assay); type: physicochemical; conditions: 0.1 m phosphate buffer, pH 7, aqueous buffer, 0.1 M phosphate buffer (pH 7.0), 4 hr. at 25° C., bioassay; read-out: Solubility, BA (bioassay)
readoutName: solubility at 4 h (µg/mL)

Take a look at these entries with their results.
### Prompt What value of solubility at 4 h has been reported for the following molecule? NCc1ccccc1CC(=O)NC1C(=O)N2C(C(=O)O)=C(CSc3ccc(O)nn3)CSC12 (stereo not shown) [BB-S150, reference compound]
### Response 4400

### Prompt What value of solubility at 4 h has been reported for the following molecule? Cn1nnnc1SCC1=C(C(=O)O)N2C(=O)C(NC(=O)CC3=C(CN)CCCC3)[C@H]2SC1 (stereo partly shown)
### Response 25600

### Prompt What value of solubility at 4 h has been reported for the following molecule? Cn1nnnc1SCC1=C(C(=O)O)N2C(=O)C(NC(=O)Cc3ccccc3CN)C2SC1 (stereo not shown) [MR-S94, reference compound]
### Response 2000

[1] NCC1=C(CC(=O)NC2C(=O)N3C(C(=O)O)=C(CSc4ccc5nnc(O)n5n4)CSC23)CCCC1 (stereo not shown)
[2] NCc1ccccc1CC(=O)NC1C(=O)N2C(C(=O)O)=C(CSc3ccc4nnnn4n3)CSC12 (stereo not shown) [BB-S226, reference compound]
[3] NCC1=C(CC(=O)NC2C(=O)N3C(C(=O)O)=C(CSc4ccc(O)nn4)CS[C@H]23)CCCC1 (stereo partly shown)
### Prompt Reorder: solubility at 4 h, max to min. # answer = labels listed in requested order
### Response 3, 1, 2

[1] NCC1=C(CC(=O)NC2C(=O)N3C(C(=O)O)=C(CSc4ccc5nnnn5n4)CSC23)CCCC1 (stereo not shown)
[2] Cc1nnc(SCC2=C(C(=O)O)N3C(=O)C(NC(=O)Cc4ccccc4CN)C3SC2)s1 (stereo not shown) [MR-S96, reference compound]
### Prompt Recorded solubility at 4 h values differ for 1 and 2 ; which one is higher? State your choice using its label.
### Response 1
(1: 3000 µg/mL, 2: 1200 µg/mL)

###

assay: Water solubility; assay type: physicochemical; settings: sodium salt
readoutName: solubility

### Prompt What value of solubility has been reported for the following molecule? Cn1nnnc1SCC1=C(C(=O)O)N2C(=O)C(NC(=O)CC3=C(CN)CCCC3)C2SC1 (stereo not shown) [Example 15]
### Response > 250 mg/mL

###

experiment: Solubility in 0.1 M pH 7.0 phosphate buffer (bioassay and UV-assay); type: physicochemical; settings: 0.1 m phosphate buffer, pH 7, aqueous buffer, stirred at 25° C. for 4 hours in 0.1 M pH 7.0 phosphate buffer; assayed spectroscopically against its own standard; read-out: Solubility
readoutName: solubility at 4 h (µg/mL)

### Prompt What value of solubility at 4 h has been reported for the following compound? NCc1ccccc1CC(=O)NC1C(=O)N2C(C(=O)O)=C(CSc3ccc4nnnn4n3)CSC12 (stereo not shown) [BB-S226, reference compound]
### Response 3500

### Prompt What value of solubility at 4 h has been reported for the following compound? Cn1nnnc1SCC1=C(C(=O)O)N2C(=O)C(NC(=O)Cc3ccccc3CN)C2SC1 (stereo not shown) [MR-S94, reference compound]
### Response 1900

[A] Cc1nnc(SCC2=C(C(=O)O)N3C(=O)C(NC(=O)Cc4ccccc4CN)C3SC2)s1 (stereo not shown) [MR-S96, reference compound]
[B] NCC1=C(CC(=O)NC2C(=O)N3C(C(=O)O)=C(CSc4ccc5nnnn5n4)CSC23)CCCC1 (stereo not shown) [Example 2]
[C] NCc1ccccc1CC(=O)NC1C(=O)N2C(C(=O)O)=C(CSc3ccc(O)nn3)CSC12 (stereo not shown) [BB-S150, reference compound]
### Prompt Reorder: solubility at 4 h, max to min. # answer = labels listed in requested order
### Response C, B, A
